FYI, the data here is from PubChem BioAssay AID1508600.

Test: Components of the Cytosolic LPS Sensing Pathway: Gene Identification via Genome-wide siRNA Screen
Conditions: RAW264.7 macrophages, IL-1a HTRF, actives lie on both sides, screened at 100 nM (by protocol), cells primed 5 h with Pam3CSK4 first
Among all 53,000 sequences or so, about 3,700 (7%) were called active.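 The calls were made as follows: active = gene knockdowns whose robust z-score for IL-1 alpha signal is at least 2 or at most -2, so actives lie on both sides; inactive = the rest.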 Many of the other results were omitted from the sample, so actives are more common in it than they were.
Would you mind answering with one of these outcomes? active, inactive

Test call, this sequence: GCUACAACAAGACAAAGUCTT against Tada1
inactive

Ok, now GGAAGUCCUGGACAUUCAGTT against Nfkbie
active

---

Assay: Components of the Cytosolic LPS Sensing Pathway: Gene Identification via Genome-wide siRNA Screen
Details: RAW264.7 macrophages, IL-1a HTRF, actives lie on both sides, screened at 100 nM (by protocol), cells primed 5 h with Pam3CSK4 first
Out of some 53,000 sequences screened, about 3,700 (7%) were called active.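 How the source made its calls: active means gene knockdowns whose robust z-score for IL-1 alpha signal is at least 2 or at most -2, so actives lie on both sides; inactive means the rest.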 Many of the other results were omitted from the sample, so actives are more common in it than they were.
Would you mind answering with one of these outcomes? Yes = active, No = inactive

Test call, this sequence: CGGAACCAUAGGGAAUCAGTT against Cmc2
Yes

Ok, now GCUCUACAUGAAAACACUGTT against Gpat4
No

Ok, now CGGUCAACAUCAAUGGUAATT against Gkn1
No

Ok, now GGCACCAUAGAUGUUUGAGTT against Cyp4f16
No

Ok, now GGAUCUCUUUUUUCACAUGTT against Kcne2
No

Others:
Test call, this sequence: GGAGAAUGGAAAGUAUGGGTT against D1Pas1
No

Ok, now GGACCGCGUUCAAGAAGAATT against Cyp2c37
Yes

Ok, now GGGAGACUUGUCAUGCACATT against Slc45a2
No

Ok, now GGUGUUCUUGAAGUUUAUATT against Zfp157
No

Ok, now GGUGGAGAGUGAACAACAATT against Tpr
No

Ok, now GGAGAUCACUAUGUUCUGATT against Ivd
No

Ok, now CCUUGUCGAGCACAUGAGATT against Zfp69
No
